- tgt: glutathione-S-transferase (GST) tagged LXRbeta LBD (ligand binding domain) (Homo sapiens, UniProt P55055)
- Construct: purchased Invitrogen pv4658.pps
- assay.details: LanthaScreen TR-FRET Liver X Receptor Coactivator Assay, LXR beta
- Assay type: biochemical
- particulars: efficacy (Emax) in relation to reference dual agonist T0901317; read-out: LXR beta actiivty at max dose (%)
property.measured: Emax

In the examples that follow, each entry is paired with its recorded Emax.
molecule="CCOc1cccc(C(O)(C(=O)N2CCC3(CCC(Sc4ccc(C(=O)N(C)C)c(Cl)c4)CC3)CC2)C(F)(F)F)c1 (single isomer, unassigned) [Example 19-3]" property_measured=Emax test_value=95%
molecule="COc1cccc([C@@](O)(C(=O)N2CCC(CCC[C@H](C)Nc3ccc(C(=O)N(C)C)c(Cl)c3)CC2)C(F)(F)F)c1 (single isomer, unassigned) [Example 4-1]" property_measured=Emax test_value=71%
molecule="NC(=O)c1ccc(NCCCCC2CCN(C(=O)C(O)(c3ccccc3)C(F)(F)F)CC2)cc1Cl (single isomer, unassigned) [Example 1-2]" property_measured=Emax test_value=59%
molecule="CN(C)C(=O)c1ccc(CCCC2CC3(CCN(C(=O)C(O)(c4ccccc4)C(F)(F)F)CC3)C2)cc1Cl (single isomer, unassigned) [Example 16-2]" property_measured=Emax test_value=113%
molecule="COc1cccc(C(O)(C(=O)N2CCC(CCCCCc3ccc(C(=O)N(C)C)c(Cl)c3)CC2)C(F)(F)F)c1 (single isomer, unassigned) [Example 15-5]" property_measured=Emax test_value=75%
molecule="CN(C)C(=O)c1ccc(N(C)CCC2CC23CCN(C(=O)C(C)(C)c2ccccc2)CC3)cc1Cl (single isomer, unassigned) [Example 9-1]" property_measured=Emax test_value=80%

Note Emax for the molecule shown: CC(CCCC1CCN(C(=O)[C@](O)(c2ccccc2)C(F)(F)F)CC1)Nc1ccc(C(=O)N(C)C)c(Cl)c1 (single isomer, unassigned) [Example 4-3]
79%

Identify measured Emax associated with CCc1cccc(C(O)(C(=O)N2CCC(CCCCNc3ccc(C(=O)NC)c(Cl)c3)CC2)C(F)(F)F)c1 (single isomer, unassigned) [Example 1-8]
52%

Return Emax for the following molecule: CN(C)C(=O)c1ccc(S(=O)(=O)CCCCC2CCN(C(=O)C(C)(C)c3ccccc3)CC2)cc1Cl [Example 22-1]
57%

Identify measured Emax associated with CN(C)C(=O)c1ccc(NCCC[C@H]2CC23CCN(C(=O)[C@@](O)(c2ccccc2)C(F)(F)C(F)(F)F)CC3)cc1Cl (single isomer, unassigned) [Example 6-7]
91%

* * *

# maps each entry to its LXR alpha actiivty at max dose (%)
- tgt: glutathione-S-transferase (GST) tagged LXRalpha LBD (ligand binding domain) (Homo sapiens, UniProt Q13133)
- Construct: purchased Invitrogen pv4655
- Sequence (Q13133 209-447 limits assumed): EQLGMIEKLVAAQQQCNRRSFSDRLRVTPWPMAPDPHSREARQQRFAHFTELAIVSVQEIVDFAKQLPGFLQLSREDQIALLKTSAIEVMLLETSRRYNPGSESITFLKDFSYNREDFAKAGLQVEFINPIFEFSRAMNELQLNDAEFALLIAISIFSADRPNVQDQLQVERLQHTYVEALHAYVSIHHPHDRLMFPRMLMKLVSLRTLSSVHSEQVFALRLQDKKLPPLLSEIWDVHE
- assay.details: LanthaScreen TR-FRET Liver X Receptor Coactivator Assay, LXR alpha
- Assay type: biochemical
- particulars: efficacy (Emax) in relation to reference dual agonist T0901317
Provide only the numeric value, understood in %.

Consider the reported LXR alpha actiivty at max dose (%) for these compounds:
compound="CN(C)C(=O)c1ccc(CCCCCC2CCN(C(=O)C(O)(c3ccccc3)C(F)(F)F)CC2)cc1Cl (single isomer, unassigned) [Example 15-8]" test_value=29
compound="CN(C)C(=O)c1ccc(CCCCCC2CCN(C(=O)C(O)(c3ccccc3)C(F)(F)F)CC2)cc1Cl (single isomer, unassigned) [Example 15-9]" test_value=4
compound="CC(CCCC1CCN(C(=O)[C@](O)(c2ccccc2)C(F)(F)F)CC1)Nc1ccc(C(=O)N(C)C)c(Cl)c1 (single isomer, unassigned) [Example 4-4]" test_value=7
compound="CN(C)C(=O)c1ccc(CCCCC2CCN(C(=O)C(O)(c3ccccc3)C(F)(F)F)CC2)cc1Cl (single isomer, unassigned)" test_value=36

Could you now look at the following compound, please?
Please give measured LXR alpha actiivty at max dose (%) of the following entry: CC(CCCC1CCN(C(=O)[C@](O)(c2ccccc2)C(F)(F)F)CC1)Nc1ccc(C(=O)N(C)C)c(Cl)c1 (single isomer, unassigned) [Example 4-3]
35

* * *

- tgt: glutathione-S-transferase (GST) tagged LXRbeta LBD (ligand binding domain) (Homo sapiens)
- Construct: purchased Invitrogen pv4658.pps
- assay.details: LanthaScreen TR-FRET Liver X Receptor Coactivator Assay, LXR beta
- Type: biochemical
- particulars: read-out: LXR beta actiivty at max dose (%)
property.measured: Emax (%)
Entry rule: numbers only, all in %.

// known answers, use as guide
compound="COc1cccc([C@@](O)(C(=O)N2CCC(CC3CC(Nc4ccc(C(=O)N(C)C)c(Cl)c4)C3)CC2)C(F)(F)F)c1 (single isomer, unassigned)" display_unit=% test_value=85
compound="CN(C)C(=O)c1ccc(S(=O)(=O)C2CCC3(CC2)CCN(C(=O)C(O)(c2cc(Cl)cc(Cl)c2)C(F)(F)F)CC3)cc1Cl (single isomer, unassigned)" display_unit=% test_value=50
compound="COc1cccc([C@@](O)(C(=O)N2CCC3(CC2)CC(CCCc2ccc(C(=O)N(C)C)c(Cl)c2)C3)C(F)(F)F)c1 (single isomer, unassigned)" display_unit=% test_value=100
compound="CN(C)C(=O)c1ccc(CCCC2CCN(C(=O)C(O)(c3ccccc3)C(F)(F)F)CC2)cc1Cl (single isomer, unassigned)" display_unit=% test_value=41
compound=CN(C)C(=O)c1ccc(N(C)CCC2CC3(CCN(C(=O)C(C)(C)c4ccccc4)CC3)C2)nc1Cl display_unit=% test_value=34

Provide measured Emax value, entry: CN(C)C(=O)c1ccc([S+]([O-])C2CCC3(CC2)CCN(C(=O)C(O)(c2cc(Cl)cc(Cl)c2)C(F)(F)F)CC3)cc1Cl (single isomer, unassigned)
50

* * *

- tgt: glutathione-S-transferase (GST) tagged LXRbeta LBD (ligand binding domain) (Homo sapiens)
- Construct: purchased Invitrogen pv4658.pps
- assay.details: LanthaScreen TR-FRET Liver X Receptor Coactivator Assay, LXR beta
- Assay type: biochemical
- particulars: efficacy (Emax) in relation to reference dual agonist T0901317; read-out: LXR beta actiivty at max dose (%)
Emax values, listed per item
Enter your answer as a number in %; do not include the unit.

Worked cases, answers included:
molecule="COc1cccc(C(O)(C(=O)N2CCC3(CCC(Nc4ccc(C(=O)N(C)C)c(Cl)c4)CC3)CC2)C(F)(F)F)c1 (single isomer, unassigned)" display_unit=% test_value=54
molecule="COc1cccc([C@@](O)(C(=O)N2CCC([C@H]3C[C@H]3CSc3ccc(C(=O)N(C)C)c(Cl)c3)CC2)C(F)(F)F)c1 (single isomer, unassigned)" display_unit=% test_value=118
molecule="CNC(=O)c1ccc(CCCCCC2CCN(C(=O)C(O)(c3ccccc3)C(F)(F)F)CC2)cc1Cl (single isomer, unassigned)" display_unit=% test_value=93
molecule="CNC(=O)c1ccc(NCCCCC2CCN(C(=O)C(O)(c3cccc(OC4CC4)c3)C(F)(F)F)CC2)cc1Cl (single isomer, unassigned)" display_unit=% test_value=56
molecule=CN(C)C(=O)c1ccc(CCCC2CC3(CCN(C(=O)C(C)(C)c4ccccc4)CC3)C2)cc1Cl display_unit=% test_value=108

Now let's try a different one.
Read the entry CN(C)C(=O)c1ccc(NCCCC2CCN(S(=O)(=O)c3c(Cl)cccc3Cl)CC2)cc1Cl and write its reported Emax.
82

* * *

- tgt: glutathione-S-transferase (GST) tagged LXRbeta LBD (ligand binding domain) (Homo sapiens, UniProt P55055)
- Construct: purchased Invitrogen pv4658.pps
- Sequence (P55055 222-460 limits assumed): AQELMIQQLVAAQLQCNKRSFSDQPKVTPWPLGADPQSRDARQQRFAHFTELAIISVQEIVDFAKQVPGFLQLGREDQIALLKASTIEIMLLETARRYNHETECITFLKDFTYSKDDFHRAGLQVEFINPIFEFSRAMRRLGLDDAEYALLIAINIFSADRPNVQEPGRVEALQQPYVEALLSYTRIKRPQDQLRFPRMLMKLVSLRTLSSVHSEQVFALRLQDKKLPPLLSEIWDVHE
- assay.details: LanthaScreen TR-FRET Liver X Receptor Coactivator Assay, LXR beta
- Type: biochemical
- particulars: read-out: LXR beta actiivty at max dose (%)
# key: entry, value: Emax
The reply should contain only the number, in %.

compound="COc1cccc(C(O)(C(=O)N2CCC3(CCC(Sc4ccc(C(=O)N(C)C)c(Cl)c4)CC3)CC2)C(F)(F)F)c1 (single isomer, unassigned)" property_measured=Emax display_unit=% test_value=101
compound="COc1cccc(C(O)(C(=O)N2CCC3(CCC(Cc4ccc(C(=O)N(C)C)c(Cl)c4)CC3)CC2)C(F)(F)F)c1 (single isomer, unassigned)" property_measured=Emax display_unit=% test_value=65
compound="CC(CC1CC12CCN(C(=O)C1(c3ccccc3)CCC1)CC2)Nc1ccc(C(=O)N(C)C)c(Cl)c1 (single isomer, unassigned)" property_measured=Emax display_unit=% test_value=41
compound="CN(C)C(=O)c1ccc(NCCC2CC23CCN(C(=O)C2(c4ccccc4)CCCC2)CC3)cc1Cl (single isomer, unassigned)" property_measured=Emax display_unit=% test_value=21

Please give measured Emax of the following entry: CN(C)C(=O)c1ccc(NCCCCC2CCN(C(=O)C(O)(c3ccccc3)C(F)(F)F)CC2)nc1Cl (stereo not drawn)
52

Identify Emax associated with the compound CN(C)C(=O)c1ccc(N(C)CCCC2CCN(C(=O)C(O)(c3ccccc3)C(F)(F)F)CC2)cc1Cl (single isomer, unassigned)
109
